# SUBJECT_OF_TEST: recombinant DYRK1A kinase (Homo sapiens (Human))
# ASSAY_PROCEDURE: DYRK1A kinase assay (Ser/Thr 18 peptide Z-lyte FRET)
# RECORDED_CONDITIONS: DYRK1A kinase activity, Z-lyte Ser/Thr 18 peptide, 15 μM ATP; method text calls the value IC50; read-out: EC50 (the source's name)
READOUT_KIND: IC50 (nM)

In the examples that follow, each entry is paired with its recorded IC50.
COc1nc(N[C@H]2C[C@](C)(C(=O)NC3CC(F)(F)C3)C2)nn2ccc(-c3ccc4ncccc4c3)c12 [Compound 1041] ... 0.9
COc1nc(N[C@H]2C[C@](C)(O)C2)nn2ccc(-c3ccc4nnn(C)c4c3)c12 [Compound 200] ... 3.8
CC(=O)N1C[C@H](F)[C@H](Nc2nc(O)c3c(-c4cnc5nccn5c4)ccn3n2)C1 [Compound 263] ... 112
CN1CC[C@@H](Nc2nc(OC3COC3)c3c(-c4ccc5ncccc5c4)ccn3n2)C(F)(F)C1 [Compound 1091] ... 1.8
COc1nc(NC2CC3(CCN(C(C)=O)CC3)C2)nn2ccc(-c3ccc4nnn(C)c4c3)c12 [Compound 227] ... 3.6

a. COc1nc(N[C@H]2C[C@](C)(NC(C)=O)C2)nn2ccc(-c3ccc4nnn(C)c4c3)c12 [Compound 206]
b. COc1nc(N[C@@H]2CCOC[C@H]2F)nn2ccc(-c3cnc4nccn4c3)c12 [Compound 1149]
Task: Problem: Given the entries a and b , determine which has the lower reported IC50. Pick one; state its label.
Output: a
(a: 0.4 nM, b: 4.5 nM)
